Can you tell me EC50 for the items I'm about to list?
- Tested on: EVSA-T (human breast carcinoma)
- TEST: Anti-proliferative activity, Alamar Blue assay, EVSA-T
- Type: cell-based
- MEASUREMENT SETUP: Homo sapiens, EVSA-T, 72 h, EVSA-T cell line, 72 hours, Alamar Blue; read-out: EVSA-T prolif
Structures can show the parent of a compound that is named as a salt.
Provide the measurement as a number trailed by its unit.

These recorded examples may help you get a feel for the data.
CC1=C(C)C(=O)N(C[C@H]2CN[C@H](C)CN2CC(=O)N2CC(C)(C)c3ncc(Cc4ccc(F)cc4F)cc32)C1 [Example 24, dihydrochloride] | 1.7 nM
C[C@@H]1CN(CC(=O)N2CC(C)(C)c3ncc(Cc4ccc(F)cc4F)cc32)[C@@H](CN2C(=O)CO[C@@H](C)[C@H]2C)CN1 [Example 100, dihydrochloride] | 1.9 nM
C[C@@H]1CN(CC(=O)N2CC(C)(C)c3ncc(Cc4ccc(F)cc4F)cc32)[C@@H](CN2CC(C)(C)CC2=O)CN1 [Example 30, dihydrochloride] | 1.1 nM
C[C@@H]1CC(=O)N(C[C@H]2CN[C@H](C)CN2CC(=O)N2CC(C)(C)c3cnc(Cc4ccc(F)cc4F)cc32)C1 [Example 71, dihydrochloride] | 2.5 nM

Below are some molecules; for each one, tell me its EC50.
1. CCCC(F)(F)c1cc2c(cn1)C(C)(C)CN2C(=O)CN1C[C@@H](C)NC[C@@H]1CN1Cc2ccncc2C1=O [Example 78, dihydrochloride]
2. CCCC(F)(F)c1cc2c(cn1)C(C)(C)CN2C(=O)CN1C[C@@H](C)NC[C@@H]1CN1CC(C)(C)CC1=O [Example 38, dihydrochloride]
3. C[C@@H]1CN(CC(=O)N2CC(C)(C)c3cnc(Cc4ccc(F)cc4)cc32)[C@@H](CN2C[C@H](C)OCC2=O)CN1 (single isomer, unassigned)

1: 3.4 nM; 2: 13 nM; 3: 3.5 nM

====

- TEST SYSTEM: BIR3 domain of human XIAP (residues 252-350) (Homo sapiens, UniProt P98170)
- Construct: BIR3 domain of human XIAP (residues 252-350); His-tag (cleaved yes); made in house; host or cells: Escherichia coli
- Sequence (P98170 252-350): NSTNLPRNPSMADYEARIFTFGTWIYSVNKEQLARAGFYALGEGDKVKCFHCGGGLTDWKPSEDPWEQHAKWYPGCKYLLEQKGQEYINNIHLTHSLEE
- TEST: XIAP in vitro competitive displacement binding assay (fluorescence polarization)
- MEASUREMENT SETUP: 1 h, percent inhibition (PI) at 0.04 μM; read-out: Xiap IC50 or PI μM
Structures can show the parent of a compound that is named as a salt.
Can you tell me inhibition at 0.04 µM for the items I'm about to list?
Answers are plain numbers, in %.

C[C@@H]1CN(CC(=O)N2CC(C)(C)c3nnc(Cc4ccc(F)cc4F)cc32)[C@@H](CN2Cc3cccc(F)c3C2=O)CN1 [Example 113, dihydrochloride] | 69
C[C@@H]1CN(CC(=O)N2CC(C)(C)c3ncc(Cc4ccc(F)cc4F)cc32)[C@@H](CN2Cc3ccc(O)cc3C2=O)CN1 [Example 116, dihydrochloride] | 79
COC[C@@H]1CN(C[C@H]2CN[C@H](C)CN2CC(=O)N2CC(C)(C)c3ncc(Cc4ccc(F)cc4)cc32)C(=O)CO1 [Example 102, dihydrochloride] | 51

Would you kindly look at the next entry?
Measured inhibition at 0.04 µM of CC1CC(=O)N(C[C@H]2CN[C@H](C)CN2CC(=O)N2CC(C)(C)c3ncc(Cc4ccc(F)cc4)cc32)C1 (stereo partly shown) [Example 6, dihydrochloride] : 48

The origin of these recorded values is patent US9617283B2.
